# log10(IC50) per entry for Cyclooxygenase (Rattus norvegicus, UniProt P35355+Q63921)
Base-10 log of IC50, unit µM.

## Task Give reported log10(IC50) value for "CC(C)(C)c1cc(/C=C/c2nnc(S)o2)cc(C(C)(C)C)c1O"
## Result 0.97

## Task Give reported log10(IC50) value for "CSc1nnc(-c2cc(C(C)(C)C)c(O)c(C(C)(C)C)c2)s1"
## Result -0.39

## Task Give reported log10(IC50) value for "COc1c(C(C)(C)C)cc(-c2nnc(S)s2)cc1C(C)(C)C"
## Result -0.46

## Task Give reported log10(IC50) value for "CC(C)(C)c1cc(-c2nnc(N)s2)cc(C(C)(C)C)c1O"
## Result -0.89

## Task Give reported log10(IC50) value for "CC(C)(C)c1cc(-c2n[nH]c(S)n2)cc(C(C)(C)C)c1O"
## Result -0.11

## Task Give reported log10(IC50) value for "CC(C)(C)c1cc(-c2n[nH]c(O)n2)cc(C(C)(C)C)c1O"
## Result 0.74

## Task Give reported log10(IC50) value for "CC(C)(C)c1cc(-c2nnc(S)o2)cc(C(C)(C)C)c1O"
## Result 0.57

Data credit: ChEMBL document CHEMBL1127091
